# MEASUREMENT DESCRIPTION: KCC2 and NKCC1 inhibition by rubidium flux, cell-based, NKCC1 counter-screen (AID 1734)
# CONDITION: KCC2-expressing cells, NKCC1 counter-screen, at 50 µM
Binary classification by inhibition, with 30% as an inclusive lower bound for Yes; all other cases are No.

Does the reported inhibition for CCOc1ccc(N2C(=O)C3Sc4[nH]c(=O)sc4C(/C=C/c4ccccc4)C3C2=O)cc1 (stereo not given) fall at or above the 30% mark?
Yes

Does the reported inhibition for Cc1ccc(-c2ccc(S(=O)(=O)NCC3CCCO3)cc2)cc1 (stereo not given) fall at or above the 30% mark?
No

Does the reported inhibition for Cc1ccc(NC(=O)c2ccccc2NS(=O)(=O)c2ccc(Cl)s2)cc1 fall at or above the 30% mark?
Yes

Does the reported inhibition for CCCn1c(N)c(C(=O)CSc2nnc(Cc3ccccc3)o2)c(=O)n(C)c1=O fall at or above the 30% mark?
No

Does the reported inhibition for CC1Cc2ccccc2N1C(=O)c1ccc(N2CCCC2)c([N+](=O)[O-])c1 (stereo not given) fall at or above the 30% mark?
Yes

Does the reported inhibition for O=C(Nc1ccc(S(=O)(=O)NCc2ccccc2)cc1)c1ccccc1[N+](=O)[O-] fall at or above the 30% mark?
Yes

Does the reported inhibition for O=C(OCC(=O)N1CCN(C(=O)c2ccco2)CC1)c1sc2ccccc2c1Cl fall at or above the 30% mark?
Yes

Does the reported inhibition for O=C(NCC1CCCN(C(=O)c2cccnc2)C1)c1ccc(-c2ccccc2)cc1 (stereo not given) fall at or above the 30% mark?
Yes

Does the reported inhibition for O=C(CN1C(=O)NC2(CCCC2)C1=O)Nc1nc(-c2ccc(F)cc2)cs1 fall at or above the 30% mark?
Yes

Does the reported inhibition for O=C(Cn1cnc2c(nnn2Cc2ccccc2)c1=O)c1ccc(Cl)cc1 fall at or above the 30% mark?
Yes

Does the reported inhibition for O=C(Cn1cnc2c(nnn2Cc2ccccc2)c1=O)N1CCCc2ccccc21 fall at or above the 30% mark?
Yes

Does the reported inhibition for Cc1csc(NC(=O)CSc2ccc(-c3ccccc3)nn2)n1 fall at or above the 30% mark?
No

Does the reported inhibition for O=C(NCCOc1ccccc1F)c1ccccc1SCc1ccc(F)cc1 fall at or above the 30% mark?
Yes

Does the reported inhibition for Cc1cnc(NC(=O)CSc2nnc(Cc3ccccc3)o2)s1 fall at or above the 30% mark?
No

---

# MEASUREMENT DESCRIPTION: KCC2 and NKCC1 inhibition by rubidium flux, cell-based, NKCC1 counter-screen (AID 1734)
# CONDITION: KCC2-expressing cells, NKCC1 counter-screen, at 5 µM
Binary classification by inhibition, with 30% as an inclusive lower bound for Satisfied; all other cases are Not satisfied.

Does the reported inhibition for O=C(CCS(=O)(=O)Cc1ccccc1)Nc1nc2c(s1)CCCC2 fall at or above the 30% mark?
Satisfied

Does the reported inhibition for O=C(NCC1CCCN(C(=O)c2cccnc2)C1)c1ccc(-c2ccccc2)cc1 (stereo not drawn) fall at or above the 30% mark?
Satisfied

Does the reported inhibition for O=C(OCC(=O)N1CCN(C(=O)c2ccco2)CC1)c1sc2ccccc2c1Cl fall at or above the 30% mark?
Satisfied

Does the reported inhibition for CCCn1c(N)c(C(=O)CSc2nnc(Cc3ccccc3)o2)c(=O)n(C)c1=O fall at or above the 30% mark?
Not satisfied

Does the reported inhibition for Cc1cnc(NC(=O)CSc2nnc(Cc3ccccc3)o2)s1 fall at or above the 30% mark?
Not satisfied

Does the reported inhibition for CCOc1ccc(Nc2n[nH]c(=S)s2)cc1 fall at or above the 30% mark?
Satisfied

Does the reported inhibition for CC1Cc2ccccc2N1C(=O)c1ccc(N2CCCC2)c([N+](=O)[O-])c1 (stereo not drawn) fall at or above the 30% mark?
Not satisfied

Does the reported inhibition for O=C(O)CCn1c(SCc2cccc3ccccc23)nc2ccccc21 fall at or above the 30% mark?
Satisfied

Does the reported inhibition for O=C(/C=C/c1ccccc1)Nc1scc(-c2ccccc2)c1C(=O)O fall at or above the 30% mark?
Not satisfied

Does the reported inhibition for O=C(Cn1cnc2c(nnn2Cc2ccc(F)cc2)c1=O)N1CCCc2ccccc21 fall at or above the 30% mark?
Not satisfied

Does the reported inhibition for O=S(=O)(NCc1ccccc1)c1ccc(Cl)c(S(=O)(=O)NCc2ccccc2)c1 fall at or above the 30% mark?
Not satisfied

Does the reported inhibition for Cc1csc(NC(=O)CSc2ccc(-c3ccccc3)nn2)n1 fall at or above the 30% mark?
Not satisfied

Does the reported inhibition for O=C(Cn1cnc2c(nnn2Cc2ccccc2)c1=O)c1ccc(Cl)cc1 fall at or above the 30% mark?
Not satisfied
